Molecular target: human cathepsin S (CatS) (Homo sapiens)
Construct: made in house; host or cells: baculovirus system (insect cells)
Sequence (P25774 115-331): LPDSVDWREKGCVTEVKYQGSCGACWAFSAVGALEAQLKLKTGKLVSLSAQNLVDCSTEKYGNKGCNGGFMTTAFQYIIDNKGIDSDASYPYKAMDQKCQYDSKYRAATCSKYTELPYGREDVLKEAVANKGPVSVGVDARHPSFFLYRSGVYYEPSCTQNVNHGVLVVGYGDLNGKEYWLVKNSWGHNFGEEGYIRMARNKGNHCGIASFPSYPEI
Test: Recombinant human cathepsin S (CatS) fluorogenic substrate inhibition assay
Assay type: biochemical
Conditions: recombinant human CatS, 10 μM Z-Valine-Valine-Arginine-AMC, pH 5.0; average of results obtained; read-out: CatS IC50
Method: Recombinant human cathepsin S (CatS) was expressed in the baculovirus system and purified in one step with a thiopropyl-sepharose column. […] The assay is run in 150 mM sodium acetate pH 5.0 containing 1.5 mM DTT and 150 mM NaCl. […] Measurements are taken every min for 20 min. The rate is calculated from the slope of the increase in fluorescence and the percent inhibition is calculated from this.
Lab note: anything with IC50 below 200 nM is marked MET; values at 200 nM or higher are marked NOT MET.

CS(=O)(=O)N1CCc2c(c(-c3ccc(C(F)(F)F)c(CNC(=O)Cc4ccccc4)c3)nn2CCCN2CCC(N3CCCC3=O)CC2)C1 = NOT MET
CS(=O)(=O)N1CCc2c(c(-c3ccc(C(F)(F)F)c(CNC(=O)c4ccc(Br)s4)c3)nn2CC(O)CN2CCC(N3CCCC3=O)CC2)C1 (stereo not drawn) = MET
CS(=O)(=O)N1CCc2c(c(-c3ccc(C(F)(F)F)c(CNC(=O)N4CCCCC4)c3)nn2CC(O)CN2CCC(N3CCCC3=O)CC2)C1 (stereo not drawn) = MET
Cc1noc(C2CCCN(CC(O)Cn3nc(-c4ccc(C(F)(F)F)c(CNC(=O)CC(C)C)c4)c4c3CCN(S(C)(=O)=O)C4)C2)n1 (stereo not drawn) = NOT MET
CS(=O)(=O)N1CCc2c(c(-c3ccc(C(F)(F)F)c(CNC(=O)c4cccs4)c3)nn2CC(O)CN2CCC(N3CCCC3=O)CC2)C1 (stereo not drawn) = MET
CN(C)c1ccc2c(n1)n(C1CCN(CC(O)Cn3nc(-c4ccc(C(F)(F)F)c(CNC(=O)CO)c4)c4c3CCN(S(C)(=O)=O)C4)CC1)c(=O)n2C (stereo not drawn) = NOT MET
CS(=O)(=O)N1CCc2c(c(-c3ccc(Cl)c(CNC(=O)c4ccc(F)cc4)c3)nn2CC(O)CN2CCC(N3CCCC3=O)CC2)C1 (stereo not drawn) = MET
CC(C)=CC(=O)NCc1cc(-c2nn(CC(O)CN3CCC(c4ccccn4)CC3)c3c2CN(S(C)(=O)=O)CC3)ccc1C(F)(F)F (stereo not drawn) = MET
Cc1ccc(NCc2cc(-c3nn(CCCN4CCC(N5CCCC5=O)CC4)c4c3CN(S(C)(=O)=O)CC4)ccc2Cl)cc1 = NOT MET
CS(=O)(=O)N1CCc2c(c(-c3ccc(C(F)(F)F)c(CNC(=O)c4ccc(N5CCOCC5)nc4)c3)nn2CC(O)CN2CCC(N3CCCC3=O)CC2)C1 (stereo not drawn) = NOT MET
CN(C)c1ccc2c(n1)n(C1CCN(CC(O)Cn3nc(-c4ccc(C(F)(F)F)c(CN)c4)c4c3CCN(S(C)(=O)=O)C4)CC1)c(=O)n2C (stereo not drawn) = NOT MET
CS(=O)(=O)N1CCc2c(c(-c3ccc(C(F)(F)F)c(CNC=O)c3)nn2CC(O)CN2CCC(N3CCCC3=O)CC2)C1 (stereo not drawn) = NOT MET
CC1CCCN(CC(=O)NCc2cc(-c3nn(CCCN4CCC(N5CCCC5=O)CC4)c4c3CN(S(C)(=O)=O)CC4)ccc2C(F)(F)F)C1 (stereo not drawn) = NOT MET
CN1CCOc2cc(C(=O)NCc3cc(-c4nn(CC(O)CN5CCC(N6CCCC6=O)CC5)c5c4CN(S(C)(=O)=O)CC5)ccc3C(F)(F)F)ccc21 (stereo not drawn) = MET
CC(C)(C)OC(=O)N1CCC(C(=O)NCc2cc(-c3nn(CC(O)CN4CCC(N5CCCC5=O)CC4)c4c3CN(S(C)(=O)=O)CC4)ccc2C(F)(F)F)CC1 (stereo not drawn) = NOT MET
COc1ccc(NCc2cc(-c3nn(CCCN4CCC(N5CCCC5=O)CC4)c4c3CN(S(C)(=O)=O)CC4)ccc2Cl)cc1 = NOT MET
CS(=O)(=O)N1CCc2c(c(-c3ccc(C(F)(F)F)c(Cn4cnnn4)c3)nn2CCCN2CCC(N3CCCC3=O)CC2)C1 = NOT MET
CS(=O)(=O)N1CCc2c(c(-c3ccc(C(F)(F)F)c(CNC(=O)Cc4ccncc4)c3)nn2CCCN2CCC(N3CCCC3=O)CC2)C1 = NOT MET
CSC(=O)NCc1cc(-c2nn(CCCN3CCC(N4CCCC4=O)CC3)c3c2CN(S(C)(=O)=O)CC3)ccc1C(F)(F)F = NOT MET
CS(=O)(=O)N1CCc2c(c(-c3ccc(C(F)(F)F)c(CNCCN4CCCCC4)c3)nn2CC(O)CN2CCC(N3CCCC3=O)CC2)C1 (stereo not drawn) = NOT MET
CS(=O)(=O)N1CCc2c(c(-c3ccc(Cl)c(NC(=O)c4ccc([N+](=O)[O-])cc4)c3)nn2CCCN2CCN(c3cccc(Cl)c3)CC2)C1 = NOT MET
CCSC(=O)NCc1cc(-c2nn(CCCN3CCC(N4CCCC4=O)CC3)c3c2CN(S(C)(=O)=O)CC3)ccc1C(F)(F)F = NOT MET
CC(=O)c1ccc(C(=O)NCc2cc(-c3nn(CC(O)CN4CCC(N5CCCC5=O)CC4)c4c3CN(S(C)(=O)=O)CC4)ccc2C(F)(F)F)s1 (stereo not drawn) = MET
CC(C)CC(=O)NCc1cc(-c2nn(CC(O)CN3CCC(N4CC(O)CC4=O)CC3)c3c2CN(S(C)(=O)=O)CC3)ccc1C(F)(F)F (stereo not drawn) = MET
